study system: human thrombin (Homo sapiens, UniProt P00734)
Construct: solution of human thrombin (a product of SIGMA Co.); purchased SIGMA Co
measurement description: Determination of thrombin-inhibiting activity (chromogenic substrate S-2238, initial rate)
Assay type: biochemical
reported conditions: tris hydrochloride buffer pH 8.4, room temperature, absorbance 405 nm
readout kind: Thrombin-inhibiting activity (pIC50)

// worked examples, Thrombin-inhibiting activity (pIC50) included
- N=C(N)c1ccc(CCC(=O)O)c(OCCNC(=O)C2CCN(c3ccncc3)CC2)c1.O=C(O)C(F)(F)F.O=C(O)C(F)(F)F [Compd. of Ex. 6]: <3.0
- CC(=N)N1CCC(Oc2ccc(C(=O)NCCOc3cc(C(=N)N)ccc3C=CC(=O)O)cc2)CC1.O=C(O)C(F)(F)F.O=C(O)C(F)(F)F [Compd. of Ex. 2]: <3.0
- COC(=O)c1ccc(C(=N)N)cc1OCCNC(=O)c1ccc(OC2CCN(C(C)=N)CC2)cc1.O=C(O)C(F)(F)F.O=C(O)C(F)(F)F [Compd. of Ex. 38]: 3.3

Q) What value of Thrombin-inhibiting activity (pIC50) on human thrombin (Homo sapiens, UniProt P00734) does CC(=N)N1CCC(Oc2ccc(C(=O)NCCOc3cc(C(=N)N)ccc3CCC(=O)O)cc2)CC1.O=C(O)C(F)(F)F.O=C(O)C(F)(F)F [Compd. of Ex. 4] have?
A) <3.0

Q) What value of Thrombin-inhibiting activity (pIC50) on human thrombin (Homo sapiens, UniProt P00734) does N=C(N)c1ccc(CO)c(OCCNC(=O)C2CCN(c3ccncc3)CC2)c1.O=C(O)C(F)(F)F.O=C(O)C(F)(F)F [Compd. of Ex. 37] have?
A) <4.0

Q) What value of Thrombin-inhibiting activity (pIC50) on human thrombin (Homo sapiens, UniProt P00734) does N=C(N)c1ccc(CCCO)c(OCCNC(=O)C2CCN(c3ccncc3)CC2)c1.O=C(O)C(F)(F)F.O=C(O)C(F)(F)F [Compd. of Ex. 43] have?
A) <4.0

Q) What value of Thrombin-inhibiting activity (pIC50) on human thrombin (Homo sapiens, UniProt P00734) does CC(=N)N1CCC(Oc2ccc(C(=O)N[C@@H](COc3cc(C(=N)N)ccc3CCC(=O)O)CC(=O)O)cc2)CC1.O=C(O)C(F)(F)F.O=C(O)C(F)(F)F [Compd. of Ex. 10] have?
A) <3.0

Q) What value of Thrombin-inhibiting activity (pIC50) on human thrombin (Homo sapiens, UniProt P00734) does CN1CCN=C1c1ccc(C(=O)NCCOc2cc(C(=N)N)ccc2CC(=O)C(=O)O)cc1.O=C(O)C(F)(F)F.O=C(O)C(F)(F)F [Compd. of Ex. 51] have?
A) 4.3

* * *

study system: human thrombin (Homo sapiens)
Construct: solution of human thrombin (a product of SIGMA Co.); purchased SIGMA Co
measurement description: Determination of thrombin-inhibiting activity (chromogenic substrate S-2238, initial rate)
Type: biochemical
reported conditions: tris hydrochloride buffer pH 8.4, room temperature, absorbance 405 nm; read-out: Thrombin-inhibiting activity (pIC50) (converted)
readout kind: IC50

// worked examples, IC50 included
• N=C(N)c1ccc(CCC(=O)O)c(OC[C@@H](CC(=O)O)NC(=O)C2CCN(c3ccncc3)CC2)c1 [Compd. of Ex. 13, bistrifluoroacetate] = > 794 µM
• N=C(N)c1ccc(O)c(OC[C@@H](CC(=O)O)NC(=O)C2CCN(c3ccncc3)CC2)c1 [Compd. of Ex. 29, bistrifluoroacetate] = > 100 µM
• CC(=N)N1CCC(Oc2ccc(C(=O)N[C@@H](COc3cc(C(=N)N)ccc3O)CC(=O)O)cc2)CC1 [Compd. of Ex. 28, bistrifluoroacetate] = > 100 µM
• CC(=N)N1CCC(Oc2ccc(C(=O)NCCOc3cc(C(=N)N)ccc3O)cc2)CC1 [Compd. of Ex. 14, bistrifluoroacetate] = > 100 µM

As a next step, examine the compound that follows.
Q) Quick one: IC50 for CCOC(=O)CCc1ccc(C(=N)N)cc1OCCNC(=O)C1CCN(c2ccncc2)CC1 [Compd. of Ex. 5, bistrifluoroacetate] ?
A) 6.31 µM

# credit: patent US6812231B2
